Let's look at some pKi data for Substance-P receptor (Homo sapiens) that I collected from the literature.
Bear in mind: pKi is minus log10 of a mol/L concentration; give just that figure.

Input: Give measured pKi for CO/N=C(\COCc1cc(C(F)(F)F)cc(C(F)(F)F)c1)C(CCN1CCC(N2CCCCC2=O)CC1)c1ccc(Cl)c(Cl)c1 (configuration not stated) (Substance-P receptor (Homo sapiens)).
Output: 7.74

Input: Give measured pKi for COc1cccc(C(COCc2cc(C(F)(F)F)cc(C(F)(F)F)c2)N2CCNCC2)c1 (configuration not stated) (Substance-P receptor (Homo sapiens)).
Output: 9.00

Input: Give measured pKi for "CN(Cc1ccccc1)C(=O)[C@H](Cc1ccccc1)NC(=O)[C@@H]1CCCN1C(=N)NCc1ccccc1Cl" (Substance-P receptor (Homo sapiens)).
Output: 7.73

Input: Give measured pKi for FC(F)(F)c1cc(COCC(c2ccccc2)N2CCN(CCCCc3nn[nH]n3)CC2)cc(C(F)(F)F)c1 (configuration not stated) (Substance-P receptor (Homo sapiens)).
Output: 8.20

Input: Give measured pKi for COc1cc(CN2CCN(C(COCc3cc(C(F)(F)F)cc(C(F)(F)F)c3)c3ccccc3)C(Cc3ccccc3)C2)cc(OC)c1OC (configuration not stated) (Substance-P receptor (Homo sapiens)).
Output: 6.60

Input: Give measured pKi for CN(Cc1ccccc1)C(=O)N1CC(=O)Nc2ccccc2C1c1ccccc1 (configuration not stated) (Substance-P receptor (Homo sapiens)).
Output: 6.00

Input: Give measured pKi for "CN[C@H]1CCN(C(=O)N(C)Cc2cc(C(F)(F)F)cc(C(F)(F)F)c2)[C@@H](c2ccc(F)cc2C)C1" (Substance-P receptor (Homo sapiens)).
Output: 9.70

Input: Give measured pKi for CC(C)C[C@H](NC(=O)CNC(=O)OCc1ccccc1)C(=O)NC1(C(=O)OCc2cc(C(F)(F)F)cc(C(F)(F)F)c2)CNc2[nH]c3ccccc3c2C1 (some centres not stated) (Substance-P receptor (Homo sapiens)).
Output: 6.70

Input: Give measured pKi for CO/N=C(\COCc1cc(C(F)(F)F)cc(C(F)(F)F)c1)C(CCN1CCC(N2CCCC2=O)CC1)c1ccc(Cl)c(Cl)c1 (configuration not stated) (Substance-P receptor (Homo sapiens)).
Output: 8.05

Input: Give measured pKi for "Cc1cc(F)ccc1[C@H]1C[C@@H](N2CCC2)CCN1C(=O)N(C)Cc1cc(C(F)(F)F)cc(C(F)(F)F)c1" (Substance-P receptor (Homo sapiens)).
Output: 10.09

Input: Give measured pKi for Fc1cc(F)cc(COCC(c2ccccc2)N2CCNCC2)c1 (configuration not stated) (Substance-P receptor (Homo sapiens)).
Output: 6.70

Input: Give measured pKi for "CC(C)c1nc(-c2nnc3n2CCN(C(=O)c2ccc(-c4cccs4)cc2)[C@@H]3C)co1" (Substance-P receptor (Homo sapiens)).
Output: 5.10

Input: Give measured pKi for "Cc1ccccc1-c1cc(N2CCC(O)CC2)ncc1N(C)C(=O)C(C)(C)c1cc(C(F)(F)F)cc(C(F)(F)F)c1" (Substance-P receptor (Homo sapiens)).
Output: 9.40

Input: Give measured pKi for "Cc1cc(F)ccc1[C@H]1C[C@@H](N(C)C)CCN1C(=O)N(C)[C@H](C)c1cc(C(F)(F)F)cc(C(F)(F)F)c1" (Substance-P receptor (Homo sapiens)).
Output: 9.62

Input: Give measured pKi for CC(C)[C@@H]1NC(=O)CNC(=O)[C@@H]2CCCN2C(=O)C(Cc2c[nH]c3ccccc23)NC(=O)CNC(=O)[C@H](Cc2ccc(OC(C)(C)C)cc2)NC(=O)CNC1=O (single isomer, unassigned) (Substance-P receptor (Homo sapiens)).
Output: 4.03

Input: Give measured pKi for "CN(CCO)c1cc(-c2ccccc2Cl)c(N(C)C(=O)C(C)(C)c2cc(C(F)(F)F)cc(C(F)(F)F)c2)cn1" (Substance-P receptor (Homo sapiens)).
Output: 9.11
